Assayed system: T1, human 4-1BB (tumor necrosis factor receptor superfamily member 9) (human, UniProt Q07011 24-255)
T1 construct: whole, on cells; also called hu 4-1BB; CD137
T1 sequence (Q07011 24-255): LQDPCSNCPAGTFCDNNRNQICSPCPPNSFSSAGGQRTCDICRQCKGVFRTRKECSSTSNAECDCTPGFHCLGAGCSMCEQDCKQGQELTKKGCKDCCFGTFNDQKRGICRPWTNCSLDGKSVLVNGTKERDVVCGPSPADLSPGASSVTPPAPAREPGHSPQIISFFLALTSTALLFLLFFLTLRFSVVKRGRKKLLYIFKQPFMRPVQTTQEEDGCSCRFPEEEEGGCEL
Protocol details: flow cytometry (FACS) on CHO-K1/hu 4-1BB cells
Please provide measured pEC50 for the entries that follow.
Value format note: pEC50 is -log10 of concentration (mol/L); just state the number.

Query: Output pEC50 of Anti-4-1BB heavy-chain antibody 1016P0020G4, hIgG1 (antibody, V domains shown, HCAb (heavy chain dimer, no light chain), hIgG1 Fc; also called PR001836) VH: EVQLLESGGGLVQPGGSLRLSCAASGFIFSNFAMTWVRQPPEKGLKWVSSINGSGFNTYYTDSVKGRFTISRDNSRNTLYLQMNRLTAEDTAVYFCAKEGSSETDDHYYNVDVWGQGTTVTVSS
Response: 9.55

Query: Answer with reported pEC50 of Anti-4-1BB heavy-chain antibody 1016P0037D2, hIgG1 (antibody, V domains shown, HCAb (heavy chain dimer, no light chain), hIgG1 Fc; also called PR001840) VH: EVQLVESGGGLVQPGGSLRLSCAASGFTFSSYWMHWVRQAPGKGLVWVSRINSDGSSTSYADSVQGRFTISRDNAKNTLYLQMNSLRAEDTAVYYCVRKGSSSYYHYSIEDDWGQGTLVTVSS
Response: 9.37
